Data credit: paper PMC3817407

Biological target: T1, ECF15_436
T1 chain: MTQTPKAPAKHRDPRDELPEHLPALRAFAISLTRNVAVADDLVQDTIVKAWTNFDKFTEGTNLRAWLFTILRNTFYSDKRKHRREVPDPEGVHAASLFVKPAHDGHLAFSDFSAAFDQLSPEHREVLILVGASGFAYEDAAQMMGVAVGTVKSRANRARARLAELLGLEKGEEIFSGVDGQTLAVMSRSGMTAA
Readings of fold repression for the listed binders
recorded endpoint: fold repression

- AS04_1609 (protein) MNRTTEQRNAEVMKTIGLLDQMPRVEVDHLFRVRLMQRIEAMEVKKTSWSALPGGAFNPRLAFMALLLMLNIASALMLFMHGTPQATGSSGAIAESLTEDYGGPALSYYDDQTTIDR: 5.75
- AS02_915 (protein) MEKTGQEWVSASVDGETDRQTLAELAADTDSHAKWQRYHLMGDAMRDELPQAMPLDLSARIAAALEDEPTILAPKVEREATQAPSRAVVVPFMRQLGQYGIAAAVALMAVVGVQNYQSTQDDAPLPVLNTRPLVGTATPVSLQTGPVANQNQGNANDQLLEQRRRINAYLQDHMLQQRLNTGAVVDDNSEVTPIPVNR: 3.47
- AS25_1645 (protein) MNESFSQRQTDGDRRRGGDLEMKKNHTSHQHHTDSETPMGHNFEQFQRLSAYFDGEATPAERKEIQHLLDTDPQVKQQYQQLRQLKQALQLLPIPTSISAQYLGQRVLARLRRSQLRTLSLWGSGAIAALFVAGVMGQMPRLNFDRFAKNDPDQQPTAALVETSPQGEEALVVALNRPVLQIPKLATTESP: 8.62
